- study system: Cytochrome P450 26A1 (Homo sapiens, UniProt O43174)
- Sequence (O43174 whole entry): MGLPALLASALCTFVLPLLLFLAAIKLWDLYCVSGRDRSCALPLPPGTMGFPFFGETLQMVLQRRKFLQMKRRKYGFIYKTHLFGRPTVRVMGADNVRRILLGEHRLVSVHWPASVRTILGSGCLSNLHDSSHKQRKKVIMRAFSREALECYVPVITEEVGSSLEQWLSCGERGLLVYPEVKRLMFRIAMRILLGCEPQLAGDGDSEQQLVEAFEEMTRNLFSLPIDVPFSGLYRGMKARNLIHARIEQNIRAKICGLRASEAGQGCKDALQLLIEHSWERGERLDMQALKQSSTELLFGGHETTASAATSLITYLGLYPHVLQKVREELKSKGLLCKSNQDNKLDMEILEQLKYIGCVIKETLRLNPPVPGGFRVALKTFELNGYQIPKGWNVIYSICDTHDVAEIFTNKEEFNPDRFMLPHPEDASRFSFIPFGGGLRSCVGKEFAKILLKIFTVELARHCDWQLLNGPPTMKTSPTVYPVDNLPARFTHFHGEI
- test method notes: Inhibition of ATRA-induced CYP26 in human T47D cells assessed as ATRA metabolism using [11.12-3H]-ATRA
- Assay type: functional, cell-based
recorded metric: pIC50
Friendly reminder that pIC50 comes from taking -log10 of the concentration in mol/L.

Briefly, pIC50 measured for COC(=O)/C=C(C)/C=C/C=C(C)/C=C/C1=C(C)C(n2ccnc2)CCC1(C)C (racemic) : 6.67

Record CC1=C(/C=C/C(C)=C/C=C/C(C)=C/C(=O)Nc2ccc(O)cc2)C(C)(C)CCC1n1ccnc1 (racemic) , field pIC50: 7.62

pIC50 reading for COC(=O)/C=C(C)/C=C/C=C(C)/C=C/C1=C(C)[C@H](n2ccnc2)CCC1(C)C (stereo in doubt; (+)-5) : 5.22

For reference, reported pIC50 for CC1=C(/C=C/C(C)=C/C=C/C(C)=C/C(=O)O)C(C)(C)CCC1n1ccnc1 (racemic) stands at 8.20

The reported value for CC1=C(/C=C/C(C)=C/C=C/C(C)=C/C(=O)n2ccnc2)C(C)(C)CCC1n1ccnc1 (racemic) in terms of pIC50 is 8.00

---

- test method notes: Inhibition of ATRA hydroxylase in Syrian golden hamster liver microsome assessed ATRA metabolism using [11.12-3H]-ATRA
- Assay type: microsomes, Mesocricetus auratus
For each of the compounds below, state its pKi.
Would you please state pKi, meaning minus log10 of the concentration in mol/L, as a bare number?

Reported pKi ( CC1=C(/C=C/C(C)=C/C=C/C(C)=C/C(=O)Nc2ccc(O)cc2)C(C)(C)CCC1n1ccnc1 (racemic) ) = 9.46

Notebook: COC(=O)/C=C(C)/C=C/C=C(C)/C=C/C1=C(C)C(n2ccnc2)CCC1(C)C (racemic) , pKi read as 7.34

get_value(item= CC1=C(/C=C/C(C)=C/C=C/C(C)=C/C(=O)O)C(C)(C)CCC1n1ccnc1 (racemic) , readout=pKi) returns 9.66

For reference, reported pKi for CC1=C(/C=C/C(C)=C/C=C/C(C)=C\C(=O)Nc2ccc(O)cc2)C(C)(C)CCC1n1ccnc1 (racemic) stands at 9.11

// CC1=C(/C=C/C(C)=C/C=C/C(C)=C/C(=O)n2ccnc2)C(C)(C)CCC1n1ccnc1 (racemic) : pKi value = 7.21

Reported pKi of CC1=C(/C=C/C(C)=C/C=C/C(C)=C\C(=O)O)C(C)(C)CCC1n1ccnc1 (racemic) : 8.39
